Give measured IC50 for each item. Keep answers brief.

# IC50 measured on HsSQS (Homo sapiens, UniProt P37268) for item CCCCCCCCCCCCC[n+]1ccn(CC(O)(P(=O)([O-])O)P(=O)(O)O)c1 (centres unmarked) = 180 nM

Assay HsSQS (Homo sapiens, UniProt P37268), sample CC[n+]1ccn(CC(P(=O)([O-])O)P(=O)(O)O)c1 (centres unmarked) , IC50 read: > 10000 nM

Entry CCCCC[n+]1ccn(CC(P(=O)([O-])O)P(=O)(O)O)c1 (centres unmarked) , HsSQS (Homo sapiens, UniProt P37268) data, IC50 value: > 10000 nM

CCCCCCC[n+]1ccn(CC(O)(P(=O)([O-])O)P(=O)(O)O)c1 (centres unmarked) on HsSQS (Homo sapiens, UniProt P37268) gives IC50 = 680 nM

// IC50 (HsSQS (Homo sapiens, UniProt P37268)) for CCCCCCCCCCCCCCCn1cc[n+](CC(O)(P(=O)([O-])O)P(=O)(O)O)c1 (centres unmarked) = 270 nM

The recorded IC50 with HsSQS (Homo sapiens, UniProt P37268) for CCCCCCC[n+]1ccn(CC(P(=O)([O-])O)P(=O)(O)O)c1 (centres unmarked) was 720 nM

Record O=P(O)(O)C(O)(Cn1ccnc1)P(=O)(O)O ; system HsSQS (Homo sapiens, UniProt P37268); IC50 = > 10000 nM

Kindly note: HsSQS (Homo sapiens, UniProt P37268), O=P(O)(O)C(Cn1ccnc1)P(=O)(O)O , IC50 value reported: > 10000 nM

The compound CCCC[n+]1ccn(CC(O)(P(=O)([O-])O)P(=O)(O)O)c1 (centres unmarked) , when measured on HsSQS (Homo sapiens, UniProt P37268), yielded IC50 of > 10000 nM

So the reported IC50 for CCCC[n+]1ccn(CC(P(=O)([O-])O)P(=O)(O)O)c1 (centres unmarked) , on HsSQS (Homo sapiens, UniProt P37268), turned out to be > 10000 nM

With HsSQS (Homo sapiens, UniProt P37268) as the test system, C[n+]1ccn(CC(O)(P(=O)([O-])O)P(=O)(O)O)c1 (centres unmarked) showed IC50 of > 10000 nM

These data points were gathered from paper PMC4006925.
